FYI, the data here is from patent US20110105477A1.

biological target: HIV-1 protease (Human immunodeficiency virus type 1 group M subtype B, UniProt P04585)
property: IC50 (µM)
Express your answer in µM, writing the number without its unit.

Read the entry COc1ccc(C(=O)Oc2ccc3c(c2)C(C)=CC(C)(C)N3)cc1 [Compound 2] and write its reported IC50.
18

###

target: HIV-1 protease (Human immunodeficiency virus type 1 group M subtype B, UniProt P04585); experiment: HIV protease inhibition assay; assay type: biochemical; conditions: remaining HIV-1 protease activity at 150 μM compound
property: Remain Activity (%)
Express it in %; write the number only.

Provide only the value of recorded Remain Activity for O=C(Nc1ccc(F)cc1F)c1cc2n(n1)[C@H](C(F)(F)F)[C@H]1CCCC[C@H]1N2
64.91

Retrieve Remain Activity measured for Cc1cc(=O)n2nc(NCc3cccs3)nc2[nH]1 and print it.
63.59

Return Remain Activity for the following compound: CC1=CC(C)(C)Nc2ccc(OC(=O)c3ccco3)cc21
69.67

Provide Remain Activity value for the following compound: CC1=NNc2nc3c(c(=O)n(Cc4ccccc4)c(=O)n3C)n2C1
65.08

Output Remain Activity of CC1=CC(C)(C)Nc2ccc(OC(=O)c3sc4cc([N+](=O)[O-])ccc4c3Cl)cc21
56.93

Respond only with Remain Activity recorded for O=C1c2cccc([N+](=O)[O-])c2C(=O)N1c1ccc2[nH]c(=S)sc2c1
36.93

For the compound O=C(Nc1ccc2[nH]c(=S)sc2c1)c1ccccc1 , give its reported Remain Activity.
65.14

Consider the compound CCOc1ccccc1CNc1nc2[nH]c3c(c(=O)n2n1)CCC3 . State its measured Remain Activity.
75.44

Give Remain Activity for CC1=CC(C)(C)Nc2ccc(OC(=O)c3ccc4c(c3)OCO4)cc21
63.58

Using known records, supply Remain Activity for CC1=CC(C)(C)Nc2ccc(OC(=O)c3cccs3)cc21
64.08

Give me measured Remain Activity, please, for this compound: O=C1[C@H]2CCCC[C@H]2C(=O)N1c1ccc2[nH]c(=S)sc2c1
51.9

Identify the reported Remain Activity for the following entry. CC1=CC(C)(C)Nc2ccc(OC(=O)c3cccc([N+](=O)[O-])c3)cc21
73.01

Kindly indicate its recorded Remain Activity. Item: COc1cc(OC)cc(C(=O)Oc2ccc3c(c2)C(C)=CC(C)(C)N3)c1
59.22

Please indicate Remain Activity recorded for Cc1[nH]c2nc(NCc3cccc(Br)c3)nn2c(=O)c1Cl
71.2

Quote Remain Activity reported for CC1=CC(C)(C)Nc2ccc(OC(=O)c3cccc4ccccc34)cc21 please.
65.34

Given O=c1c2c([nH]c3nc(COc4ccccc4)nn13)CCC2 , respond with its Remain Activity.
57.77

Item CC1=CC(C)(C)Nc2ccc(OC(=O)c3ccccc3Br)cc21 [drawing 433] : provide Remain Activity
65.33

Could you please provide reported Remain Activity for Cc1cc(=O)n2nc(N3C(=O)[C@H]4CCCC[C@H]4C3=O)nc2[nH]1 ? Thanks!
67.49

For CC1=CC(C)(C)Nc2ccc(OC(=O)c3cccnc3)cc21 , write its Remain Activity.
58.86
